Value source: patent US10383848B2

Tested on: M. avium 104
procedure_text: MIC, resazurin microtiter assay
Type: cell-based
experimental_context: Mycobacterium avium, 104; Mueller Hinton II; read-out: MIC M. avium 104
What MIC was measured for each of the following?

>>> print(df.to_string())
                                   molecule   observed
0  CC(NC(=O)c1cc2ccccc2[nH]1)C12CC3CC(CC(C3)C1)C2 (stereo not drawn)  > 32 mg/L

Each molecule below has a recorded value; state its MIC.
1. Cc1cc(C)c2cc(C(=O)NC3CCC(C)CC3)[nH]c2c1 (stereo not drawn)
2. CC1CCC(NC(=O)c2cc3ccccc3[nH]2)CC1 (stereo not drawn)

Result:
> 32 mg/L
> 32 mg/L

###

System: M. massiliense CIP 108297
procedure_text: MIC, resazurin microtiter assay
Type: cell-based
experimental_context: Mycobacteroides abscessus, CIP108297, Mueller Hinton II; read-out: MIC M. massiliense CIP 108297
recorded_endpoint: MIC

Below are worked cases with known answers.
                                   compound  recorded_endpoint      observed
0  C[C@@H]1[C@H]2C[C@@H](C[C@H]1NC(=O)c1cc3ccccc3[nH]1)C2(C)C [Compound 16]                MIC    0.06 µg/mL
1  CCCCCCCNC(=O)c1cc2c(C)cc(C)cc2[nH]1 [Compound 32]                MIC    > 32 µg/mL
2  Cc1cc(C)c2cc(C(=O)NC3CCCCCC3)[nH]c2c1 [Compound 26]                MIC  ≤ 0.06 µg/mL
3  CCC12CC3CC(C1)CC(NC(=O)c1cc4ccccc4[nH]1)(C3)C2 [Compound 6]                MIC    > 32 µg/mL
4  O=C(NC1CCCCC1)c1cc2ccccc2[nH]1 [Compound 12, N-cyclohexyl-1H-indole-2-carboxamide]                MIC    > 32 µg/mL
5  CC(NC(=O)c1cc2ccccc2[nH]1)C12CC3CC(CC(C3)C1)C2 (centres unmarked) [Compound 7]                MIC       8 µg/mL

Give one value of MIC per listed compound.
1. O=C(NC1CCCCCC1)c1cc2ccccc2[nH]1 [Compound 11, N-cycloheptyl-1H-indole-2-carboxamide]
2. O=C(NCc1cccc(Cl)c1)c1cc2ccccc2[nH]1 [Compound 19]

Result:
["> 32 µg/mL", "> 32 µg/mL"]

Field: MIC. Fill in for each record below.
1. CC1CCC(NC(=O)c2cc3ccccc3[nH]2)CC1 (centres unmarked) [Compound 14]
2. O=C(NCC12CC3CC(CC(C3)C1)C2)c1cc2ccccc2[nH]1 [Compound 8]
3. CCCCCCCCNC(=O)c1cc2ccccc2[nH]1 [Compound 18, N-octyl-1H-indole-2-carboxamide]
4. O=C(NC1C2CC3CC(C2)CC1C3)c1cc2ccccc2[nH]1 (centres unmarked) [Compound 9, N-(2-adamantyl)-1H-indole-2-carboxamide]
5. Cc1cc(C)c2cc(C(=O)NC3C4CC5CC(C4)CC3C5)[nH]c2c1 (centres unmarked) [Compound 24]
6. Cc1cc(C)c2cc(C(=O)N[C@@H]3C[C@@H]4C[C@H]([C@H]3C)C4(C)C)[nH]c2c1 [Compound 31]
7. O=C(NC1CCCCCCC1)c1cc2ccccc2[nH]1 [Compound 10, N-cyclooctyl-1H-indole-2-carboxamide]
8. CCC12CC3CC(C1)CC(NC(=O)c1cc4c(C)cc(C)cc4[nH]1)(C3)C2 [Compound 21]

Result:
1. > 32 µg/mL
2. 2 µg/mL
3. > 32 µg/mL
4. > 32 µg/mL
5. > 32 µg/mL
6. 0.125 µg/mL
7. > 32 µg/mL
8. > 32 µg/mL

Query: MIC for Cc1cc(C)c2cc(C(=O)NCC34CC5CC(CC(C5)C3)C4)[nH]c2c1 [Compound 23] ?
Result: > 32 µg/mL
